Examples of molecules with documented composite z-score follow.
Biological target: Calmodulin-1 (Homo sapiens)
Test: small molecules binding Ca-loaded calmodulin-1 – biochemical, small-molecule microarray, Cy5-labelled CALM1, plus calcium, artefact control for SMM control-protein annotation, profiling panel (AID 1112);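 also: score merges spot fluorescence with signal to noise from triplicate slides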
Details: Cy5-CALM1 binding fluorescence, higher = more signal
Assay Metric: composite z-score

* C=CCC(OC(C)=O)[C@@H]1[C@@H](N(Cc2ccc(-c3ccccc3)cc2)C(=O)c2ccc(C)cc2)c2cc(OCCCO)ccc2N1C(=O)Cc1ccc(OC)cc1 (stereo partly drawn) | -0.164
* COc1ccc(C(O)C2C=CC3C(=O)N(c4ccccc4)C(=O)C3N2Nc2ccccc2)c2ccccc12 (stereo not drawn) | 0.851
* O=C(CS)NCCCCCCNC(=O)[C@H]1C[C@H]2C(=O)N3CCC[C@H]3C(=O)N2[C@H]1c1ccc(O)cc1 | 0.425
* Cc1ccc(S[C@]2(C(=O)NCCN3CCOCC3)CC(=O)N(C3CCCCC3)[C@@H]2c2ccc(CO)cc2)cc1 | -0.39
* C=C(C(=O)CC[C@@H](OC(=O)c1cccnc1)c1ccc(OCCO)cc1)C(C)C | -1.85
* CCN(CC)c1ccc(N2CC=CC34O[C@@H]5C=CCOC(=O)[C@@H]5[C@H]3C(=O)N(CCCCCO)[C@@H]4C2=O)cc1 (stereo partly drawn) | -0.0559
* CCCCN1CC=CC23O[C@@H]4/C=C\CCCOC(=O)C4[C@H]2C(=O)N(C(C)CO)[C@@H]3C1=O (stereo partly drawn) | -0.101
* CC(C)NC(=O)[C@@H]1c2ccccc2C(=O)N(C2CCCCC2)[C@H]1c1ccc(CO)cc1 | 0.808

###

Assay: compound effects on differentiated 3T3-L1 adipocyte viability – cell-based, 3T3-L1 adipocytes, calcein-AM fluorescence, 48 h, basal, profiling panel (AID 1163); also: test concentration not given here
Conditions: 3T3-L1 adipocytes viability, higher = more signal
Listed here: items and their measured z-score.
Assay Metric: z-score

- Cc1ccc(N2C(=O)c3ccccc3[C@@H](C(=O)NC(C)C)[C@@H]2c2ccc(CO)cc2)nc1: -0.0953
- CC(C)NC(=O)[C@@]1(c2ccc([N+](=O)[O-])cc2)CC(=O)N(C(C)C)[C@@H]1c1ccc(CO)cc1: 0.63
- CCOC(=O)C[C@H]1[C@H](OC(=O)c2cc3ccccc3oc2=O)[C@@H](NC(=O)c2ccc3ccccc3c2)c2cc(OCCCO)ccc2N1C(=O)c1ccccc1: 2.7
- C=CCNC(=O)[C@H]1[C@@H]2C(=O)O[C@@H](c3ccccc3)[C@@H](c3ccccc3)N2[C@@H](c2ccc(O)cc2)[C@]12C(=O)Nc1ccc(C#Cc3ccc(OC)cc3)cc12: 0.205
- Cc1ccc(N2C(=O)c3ccccc3[C@](C)(C(=O)NCCN3CCOCC3)[C@@H]2c2ccc(CO)cc2)nc1: 0.994
- COCCOC(=O)N1C(=O)[C@@]2(c3cc(C#CCC(C(=O)OC)C(=O)OC)ccc31)[C@H](c1ccccc1OCCO)N1[C@H](c3ccccc3)[C@H](c3ccccc3)OC(=O)[C@H]1[C@@H]2C(=O)Nc1nc2ccccc2s1: 0.321
- C=C(COC)C(=O)CC[C@@H](OC(=O)c1ccccc1-c1ccccc1C(=O)O)c1ccc(CO)o1: -0.736
- O=C(NCC(O)CO)[C@]1(CCS(=O)(=O)c2ccccc2)N=C(c2ccc(OCCCO)cc2)O[C@@H]1c1ccccc1 (stereo partly drawn): -0.13
- COC(=O)[C@@]1(Cc2ccc(F)cc2)[C@H]2c3cc(C(=O)N4CCCC4)n(Cc4ccc(Cl)c(C(F)(F)F)c4)c3C[C@H]2CN1C(=O)c1ccccc1: -0.286
- [N-]=[N+]=NCc1ccccc1C[C@]1(C(=O)NCCN2CCOCC2)N=C(c2ccc(OCCCO)cc2)O[C@H]1c1ccccc1CN=[N+]=[N-]: 1.99
- COCCOC(=O)N1C(=O)[C@@]2(c3cc(C#CCCO)ccc31)[C@H](C(=O)NC[C@H](O)c1ccccc1)[C@H]1C(=O)O[C@H](c3ccccc3)[C@H](c3ccccc3)N1[C@@H]2c1ccc(OCCO)cc1: 1.22
- O=C1OCC=C[C@H]2OC34C=CCN(c5ccc(Cl)cc5)C(=O)[C@H]3N(CCCO)C(=O)[C@@H]4[C@@H]12 (stereo partly drawn): 1.46
- CCOC(=O)C[C@H]1[C@H](OC(=O)c2ccccc2-c2ccccc2)[C@@H](NC(=O)c2ccc(-c3ccccc3)cc2)c2cc(OCCCO)ccc2N1C(=O)c1ccccc1: 0.405
- CC(C)OC(=O)C1=CCC(c2cccc(Cl)c2)O1 (stereo not drawn): 0.102
- CC(C)NC(=O)[C@@H]1c2ccccc2C(=O)N(C2CCCCC2)[C@H]1c1ccc(CO)cc1: -0.209
- O=C(NCC(O)CO)[C@@]1(Cc2ccccc2)COC(c2ccc(OCCCO)cc2)=N1 (stereo partly drawn): -0.183
- [N-]=[N+]=NCc1ccccc1[C@H]1OC(c2ccc(OCCCO)cc2)=N[C@@]1(Cc1ccccc1)C(=O)NCC(O)CO (stereo partly drawn): -0.445
- CCCNC(=O)[C@@]1(c2ccc([N+](=O)[O-])cc2)CC(=O)N(CC23CC4CC(CC(C4)C2)C3)[C@@H]1c1ccc(CO)cc1I: -0.738
- CC1CC/C=C\[C@H]2OC34C=CCN(c5ccc6ccccc6c5)C(=O)[C@H]3N(CCCCCO)C(=O)[C@@H]4C2C(=O)O1 (stereo partly drawn): 0.956
- COc1c(C)cc(-c2cc3c(c(-c4ccccc4)n2)[Si](C(C)C)(C(C)C)O[C@H]3c2ccccc2)cc1C: -0.11
- COc1ccc([Si](C)(C)[C@@H]2[C@@H](CCn3cc([C@H](O)c4ccccc4)nn3)O[C@]3(C(=O)N(C)c4ccccc43)[C@H]2C)cc1: 1.27
- COC(=O)c1c2oc(c1C(=O)OC)C(=O)N[C@H](Cc1ccccc1)Cn1nncc1C1(CCCCC1)NC(=O)N[C@H](CO)CC2: 0.0786
- C=C(COC)/C(=C/C[C@H](OC(C)=O)c1ccccc1OCCO)c1cnc2ccccc2c1: -0.309
- [N-]=[N+]=NCc1ccccc1C[C@]1(C(=O)N2CCOCC2)N=C(c2ccc(OCCCO)cc2)O[C@H]1c1ccccc1: -0.0649
- COc1ccccc1CN1C(=O)c2ccccc2[C@](Cc2ccccc2I)(C(=O)NCc2ccccc2)[C@@H]1c1ccc(CO)cc1: 0.218
- COc1ccc(C#Cc2ccc3c(c2)[C@]2(C(=O)N3)[C@H](C(=O)N3CCN(c4ncccn4)CC3)[C@H]3C(=O)O[C@H](c4ccccc4)[C@H](c4ccccc4)N3[C@@H]2c2ccc(O)cc2)cc1: 0.583
- O=C(NCc1ccccc1)[C@@H]1c2ccccc2C(=O)N(Cc2cc(F)cc(C(F)(F)F)c2)[C@H]1c1ccc(CO)cc1: -0.115
- CCCC[C@H]1OB(O)C[C@H]2C1=C(COc1ccccc1)C[C@H]1C(=O)N(Cc3ccccc3)C(=O)[C@H]12: 0.488

###

Recorded z-score for the following compounds
Test: compound effects on hepatocellular carcinoma cell viability – HepG2, calcein-AM fluorescence, 48 h, basal, profiling panel (AID 1164); also: test concentration not given here
Conditions: higher = more signal
Assay Metric: z-score

- CC(=O)NCCCC[C@@H]1NC(=O)[C@@H]2C[C@H](C(=O)NCCCCCC[N+](C)(C)C)[C@H](c3cccc(OCCO)c3)N2C1=O: -0.231
- COC(=O)c1c2oc(c1C(=O)OC)C(=O)N[C@H](Cc1ccccc1)Cn1nncc1C1(CCCCC1)NC(=O)N[C@H](CO)CC2: 0.8
- C=C(COC)/C(=C/C[C@H](OC(C)=O)c1ccccc1OCCO)c1cnc2ccccc2c1: -0.738
- COCCOC(=O)N1C(=O)[C@@]2(c3cc(C#CCCO)ccc31)[C@H](C(=O)NC[C@H](O)c1ccccc1)[C@H]1C(=O)O[C@H](c3ccccc3)[C@H](c3ccccc3)N1[C@@H]2c1ccc(OCCO)cc1: -0.981
- CC(C)NC(=O)[C@@]1(c2ccc([N+](=O)[O-])cc2)CC(=O)N(C(C)C)[C@@H]1c1ccc(CO)cc1: 0.959
- COc1ccc([Si](C)(C)[C@@H]2[C@@H](CC(=O)N3Cc4ccccc4C[C@H]3CO)O[C@]3(C(=O)N(Cc4cccc(N5C(=O)COc6ccccc65)c4)c4ccccc43)[C@H]2C)cc1: 0.553

###

Each entry below carries its recorded composite z-score.
Target: Torsin-1A-interacting protein 2 (Homo sapiens) (UniProt Q8NFQ8)
Sequence (Q8NFQ8 whole entry, looked up): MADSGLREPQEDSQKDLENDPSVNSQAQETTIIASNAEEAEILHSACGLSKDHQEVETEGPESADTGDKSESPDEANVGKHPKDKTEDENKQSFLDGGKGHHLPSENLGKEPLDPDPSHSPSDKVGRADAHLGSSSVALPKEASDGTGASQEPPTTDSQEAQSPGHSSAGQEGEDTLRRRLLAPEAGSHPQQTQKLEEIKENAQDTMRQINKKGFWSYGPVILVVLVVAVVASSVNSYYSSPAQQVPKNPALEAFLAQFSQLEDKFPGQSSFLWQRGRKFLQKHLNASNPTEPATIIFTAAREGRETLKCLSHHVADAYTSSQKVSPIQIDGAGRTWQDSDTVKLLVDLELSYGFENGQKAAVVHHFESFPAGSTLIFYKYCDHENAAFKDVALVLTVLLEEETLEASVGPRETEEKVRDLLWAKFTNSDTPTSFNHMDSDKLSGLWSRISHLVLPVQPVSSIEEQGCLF
Test: small molecules binding lysate-expressed LULL1 – cell lysate, human LULL1 lysate, 635/667 nm fluorescence, primary screen (AID 1092);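 also: probe is lysate of COS7 cells overexpressing human LULL1; score merges per-feature 667 nm fluorescence with signal-to-noise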
Settings: small-molecule microarray, hLULL1 lysate binding, 635 nm fluorescence; higher = more signal
Assay Metric: composite z-score

* CCOC(=O)C[C@H]1[C@H](OC(=O)c2ccc(C(=O)c3ccccc3)cc2)[C@@H](NC(=O)c2ccc3ccccc3n2)c2cc(OCCCO)ccc2N1C(=O)c1ccc2ccccc2n1 | 1.34
* CC1(C)C(=O)C(c2ccccc2)=C2CN3C(=O)N(CCc4ccccc4)C(=O)C3(Cc3ccccc3)C=C21 (centres undefined) | 2.83
* CC(C)C[C@@H]1NC(=O)[C@@H]2C[C@H](C(=O)NCCCCN(C)C)[C@H](c3ccc(O)cc3)N2C1=O | 0.218
* COCCn1c(C(=O)N2CCCC2)cc2c1C[C@H]1CN(C(=O)c3ccccc3)[C@@](Cc3ccc(OC)cc3)(C(=O)OC)[C@@H]21 | 1.72
